Measured Kd by item
Biological target: T1, mouse leptin receptor-Fc chimera (mouse; human, UniProt P48356 22-839)
T1 construct: extracellular domain; Bought from R&D Systems; Captured on a protein G sensor chip through its Fc; also called ObR-Fc; chimera leptin receptor; not shown: human Fc fragment, printed as 'human protein G Fc fragment'
T1 sequence (looked up): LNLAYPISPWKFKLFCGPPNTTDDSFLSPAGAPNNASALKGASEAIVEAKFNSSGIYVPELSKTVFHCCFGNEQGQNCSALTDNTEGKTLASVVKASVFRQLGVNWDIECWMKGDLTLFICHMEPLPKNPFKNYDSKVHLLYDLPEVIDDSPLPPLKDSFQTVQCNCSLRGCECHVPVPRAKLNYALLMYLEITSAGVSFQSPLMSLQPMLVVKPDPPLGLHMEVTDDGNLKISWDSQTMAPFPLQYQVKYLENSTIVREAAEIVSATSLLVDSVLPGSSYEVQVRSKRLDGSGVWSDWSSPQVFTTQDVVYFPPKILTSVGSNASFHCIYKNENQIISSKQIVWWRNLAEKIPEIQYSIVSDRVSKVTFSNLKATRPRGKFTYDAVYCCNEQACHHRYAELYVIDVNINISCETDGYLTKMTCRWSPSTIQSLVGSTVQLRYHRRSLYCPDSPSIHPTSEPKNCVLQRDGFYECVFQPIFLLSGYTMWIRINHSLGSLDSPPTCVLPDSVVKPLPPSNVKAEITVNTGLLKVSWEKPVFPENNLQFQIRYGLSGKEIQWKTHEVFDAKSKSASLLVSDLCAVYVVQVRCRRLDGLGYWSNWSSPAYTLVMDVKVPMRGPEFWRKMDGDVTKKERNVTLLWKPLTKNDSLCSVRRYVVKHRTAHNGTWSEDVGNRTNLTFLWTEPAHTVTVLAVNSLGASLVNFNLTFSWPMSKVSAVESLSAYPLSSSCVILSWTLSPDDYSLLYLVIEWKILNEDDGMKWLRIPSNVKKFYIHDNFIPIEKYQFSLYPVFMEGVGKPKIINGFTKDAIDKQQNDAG
Test: SPR (Biacore 3000), ObR-Fc captured on protein G chip, 1:1 model
Reply with just the number (in nM).

Example results:
Lep-(ss)-P85(1) (ligand, mouse, UniProt P41160 22-167, looked up, Pluronic P85 chains on lysine amino groups through the DSP (disulfide) linker; highly modified; positions not determined, Mixture of unmodified leptin and leptin with 1 to several P85 chains) VPIQKVQDDTKTLIKTIVTRINDISHTQSVSAKQRVTGLDFIPGLHPILSLSKMDQTLAVYQQVLTSLPSQNVLQIANDLENLRDLLHLLAFSKSCSLPQTSGLQKPESLDGVLEASLYSTEVVALSRLQGSLQDILQQLDVSPEC | 57.1
Lep-(ss)-P85(2.3), 33 min (ligand, mouse, UniProt P41160 22-167, looked up, one Pluronic P85 chain on a lysine amino group through the DSP (disulfide) linker; position not determined, HIC fraction collected at 33 min, said to contain leptin modified with one P85 chain; also called Lep-(ss)-P85(2.3) purified by HIC (33 minutes); HIC-purified Lep-(ss)-P85(2.3)) VPIQKVQDDTKTLIKTIVTRINDISHTQSVSAKQRVTGLDFIPGLHPILSLSKMDQTLAVYQQVLTSLPSQNVLQIANDLENLRDLLHLLAFSKSCSLPQTSGLQKPESLDGVLEASLYSTEVVALSRLQGSLQDILQQLDVSPEC | 1.21

Briefly, Kd measured for Lep-(ss)-P85(2.1) (ligand, mouse, UniProt P41160 22-167, looked up, Pluronic P85 chains on lysine amino groups through the DSP (disulfide) linker; lower degree of modification; positions not determined, Mixture that includes unmodified leptin) VPIQKVQDDTKTLIKTIVTRINDISHTQSVSAKQRVTGLDFIPGLHPILSLSKMDQTLAVYQQVLTSLPSQNVLQIANDLENLRDLLHLLAFSKSCSLPQTSGLQKPESLDGVLEASLYSTEVVALSRLQGSLQDILQQLDVSPEC : 3.2

Briefly, Kd measured for Lep-(ss)-P85(2.1) reduced (ligand, mouse, UniProt P41160 22-167, looked up, Pluronic P85 chains on lysine amino groups through the DSP linker, partly cleaved by 6 mM L-glutathione, Lep-(ss)-P85(2.1) dialysed against 6 mM L-glutathione in PBS with 20% ethanol; also called reduced form of Lep-(ss)-P85(2.1)) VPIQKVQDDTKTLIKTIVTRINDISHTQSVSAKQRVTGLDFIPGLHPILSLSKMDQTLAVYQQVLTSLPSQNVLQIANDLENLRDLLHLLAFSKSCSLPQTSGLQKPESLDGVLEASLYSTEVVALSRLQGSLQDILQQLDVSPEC : 2.09

Briefly, Kd measured for Lep-(ss)-P85(1) reduced (ligand, mouse, UniProt P41160 22-167, looked up, Pluronic P85 chains on lysine amino groups through the DSP linker, partly cleaved by 6 mM L-glutathione; a linker remainder is left on cleaved sites, Lep-(ss)-P85(1) dialysed against 6 mM L-glutathione in PBS with 20% ethanol; Some but not all P85 chains were cleaved; also called reduced form of Lep-(ss)-P85(1)) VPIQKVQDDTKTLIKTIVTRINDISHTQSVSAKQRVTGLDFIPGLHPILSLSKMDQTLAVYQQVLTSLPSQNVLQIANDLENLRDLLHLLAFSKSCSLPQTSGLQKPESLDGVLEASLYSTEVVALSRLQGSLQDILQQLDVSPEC : 16.4

Briefly, Kd measured for Lep-(nc)-P85(2) (ligand, mouse, UniProt P41160 22-167, looked up, one Pluronic P85 chain on the N-terminal alpha amino group by reductive amination with mono-aldehyde-P85, the rest is unmodified leptin; also called N-terminal modified Lep-(nc)-P85(2)) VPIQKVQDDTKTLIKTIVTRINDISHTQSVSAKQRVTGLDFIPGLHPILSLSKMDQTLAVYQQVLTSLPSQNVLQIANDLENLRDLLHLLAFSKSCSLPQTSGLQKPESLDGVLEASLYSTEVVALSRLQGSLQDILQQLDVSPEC : 3.8
